Calls of active or inactive are those of the source.
Record: Kd reported on UniProtKB O75582.
Sequence (O75582 whole entry): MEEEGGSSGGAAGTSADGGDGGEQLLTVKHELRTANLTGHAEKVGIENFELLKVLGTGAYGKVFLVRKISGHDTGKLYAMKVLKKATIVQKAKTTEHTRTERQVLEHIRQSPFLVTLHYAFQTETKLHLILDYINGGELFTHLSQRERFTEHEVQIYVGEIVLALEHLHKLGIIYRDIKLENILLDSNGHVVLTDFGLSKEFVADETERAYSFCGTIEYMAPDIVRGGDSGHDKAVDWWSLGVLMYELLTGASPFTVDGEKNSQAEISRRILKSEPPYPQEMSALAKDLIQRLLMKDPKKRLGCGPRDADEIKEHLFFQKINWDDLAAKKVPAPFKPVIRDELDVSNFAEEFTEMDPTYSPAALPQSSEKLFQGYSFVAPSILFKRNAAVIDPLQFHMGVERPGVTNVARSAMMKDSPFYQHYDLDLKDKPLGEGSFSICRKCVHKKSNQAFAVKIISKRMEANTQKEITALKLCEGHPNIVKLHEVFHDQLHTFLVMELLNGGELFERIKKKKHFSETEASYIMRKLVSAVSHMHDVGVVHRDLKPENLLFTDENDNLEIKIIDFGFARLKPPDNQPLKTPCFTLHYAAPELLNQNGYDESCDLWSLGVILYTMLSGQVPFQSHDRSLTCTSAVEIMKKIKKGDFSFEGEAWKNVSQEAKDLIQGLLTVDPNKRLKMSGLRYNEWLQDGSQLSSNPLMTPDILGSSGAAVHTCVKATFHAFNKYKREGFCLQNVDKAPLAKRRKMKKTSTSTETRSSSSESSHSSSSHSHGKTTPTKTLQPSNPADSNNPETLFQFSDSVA
outcome measure: Kd

1) CNC(=O)c1ccc(Nc2ncc(C(F)(F)F)c(NCc3nccnc3N(C)S(C)(=O)=O)n2)cc1 : > 30 µM (inactive)
2) COc1cc2ncnc(Nc3ccc(F)c(Cl)c3)c2cc1NC(=O)/C=C/CN1CCCCC1 [DACOMITINIB ANHYDROUS] : > 30 µM (inactive)
3) C#Cc1cccc(Nc2ncnc3cc4c(cc23)OCCOCCOCCO4)c1 : > 30 µM (inactive)
4) CC(C)(O)CC(=O)NCCn1ccc2ncnc(Nc3ccc(Oc4cccc(C(F)(F)F)c4)c(Cl)c3)c21 : > 30 µM (inactive)
5) CC[C@@](C)(Nc1ccnc(-c2c[nH]c3ncccc23)n1)C(=O)NCC(F)(F)F : > 30 µM (inactive)
6) C[C@@H]1COC(Nc2ccc3ncnc(Nc4ccc(OCc5nccs5)c(Cl)c4)c3c2)=N1 : > 30 µM (inactive)
7) CCOc1ccn(-c2ccc(F)cc2)c(=O)c1C(=O)Nc1ccc(Oc2ccnc(N)c2Cl)c(F)c1 : > 30 µM (inactive)
8) CCN(CCCOc1ccc2c(Nc3cc(CC(=O)Nc4cccc(F)c4)n[nH]3)ncnc2c1)CCOP(=O)(O)O : > 30 µM (inactive)
